- Tested on: Bulk PBMNC
- assay.explanation: S100+ cells in bulk PBMNC cultures with non-cytokine additives
- Assay type: cell-based, human
- experimental.conditions: Day 7
Entries and their % S100+
Only the number, expressed in %, is required.

compound: Cc1c(C)c2c(c(C)c1O)CCC(C)(CCCC(C)CCCC(C)CCCC(C)C)O2 (mixture of isomers) [VIT E]
% S100+ / %: 8.00
--
compound: C=C1CCC(O)CC1=CC=C1CCCC2(C)C1CCC2C(C)CCCC(C)C (stereo not shown) [VIT D3]
% S100+ / %: 5.00
--
compound: CNc1ccc2oc(CC3OC4(CCC3C)OC(C(C)C(=O)c3ccc[nH]3)C(C)CC4C)nc2c1C(=O)O (stereo not shown) [Ca ++ Iono]
% S100+ / %: 7.50

Exam item: Given the entry CCCCC/C=C\C/C=C\CCCCCCCC(=O)O [Linoleio Acid] , report its measured % S100+.
Marked response: 8.50

* * *

Here the recorded VIABILITY is given for each entry.
- System: Bulk PBMNC
- assay.explanation: Concentration, viability and total cells of bulk PBMNC cultured with non-cytokine additives in PL2417
- Format: cell-based, human
- experimental.conditions: Day 7, PL2417 container, X-VIVO 15
Expressed in %, but write only the number.

These solved cases illustrate the format of a correct answer.
molecule: Cc1c(C)c2c(c(C)c1O)CCC(C)(CCCC(C)CCCC(C)CCCC(C)C)O2 (mixture of isomers)
readout.value: 82.41
--
molecule: CNc1ccc2oc(CC3OC4(CCC3C)OC(C(C)C(=O)c3ccc[nH]3)C(C)CC4C)nc2c1C(=O)O (stereo not shown)
readout.value: 83.72
--
molecule: C=C1CCC(O)CC1=CC=C1CCCC2(C)C1CCC2C(C)CCCC(C)C (stereo not shown)
readout.value: 84.51

Exam item: Need VIABILITY of `CCCCC/C=C\C/C=C\CCCCCCCC(=O)O` , thanks.
Marked response: 87.77

* * *

- Tested on: Bulk PBMNC
- assay.explanation: Flow cytometry phenotype of bulk PBMNC cultures with non-cytokine additives
- Type: cell-based, human
- experimental.conditions: Day 7
parameter: Percent of Phenotype in Culture: CD80-PE (%)
I only need the number, in %, no unit after it.

// known answers, use as guide
compound: Cc1c(C)c2c(c(C)c1O)CCC(C)(CCCC(C)CCCC(C)CCCC(C)C)O2 (mixture of isomers)
readout.value: 1.97
//
compound: CNc1ccc2oc(CC3OC4(CCC3C)OC(C(C)C(=O)c3ccc[nH]3)C(C)CC4C)nc2c1C(=O)O (stereo not shown)
readout.value: 2.21
//
compound: CCCCC/C=C\C/C=C\CCCCCCCC(=O)O
readout.value: 2.61

Now for another entry.
Exam item: Param item = C=C1CCC(O)CC1=CC=C1CCCC2(C)C1CCC2C(C)CCCC(C)C (stereo not shown) ; retrieve measured Percent of Phenotype in Culture: CD80-PE.
Marked response: 2.65

FYI, the data here is from patent US6458585B1.
